B1: library; numbered along this chain (parent)
chain: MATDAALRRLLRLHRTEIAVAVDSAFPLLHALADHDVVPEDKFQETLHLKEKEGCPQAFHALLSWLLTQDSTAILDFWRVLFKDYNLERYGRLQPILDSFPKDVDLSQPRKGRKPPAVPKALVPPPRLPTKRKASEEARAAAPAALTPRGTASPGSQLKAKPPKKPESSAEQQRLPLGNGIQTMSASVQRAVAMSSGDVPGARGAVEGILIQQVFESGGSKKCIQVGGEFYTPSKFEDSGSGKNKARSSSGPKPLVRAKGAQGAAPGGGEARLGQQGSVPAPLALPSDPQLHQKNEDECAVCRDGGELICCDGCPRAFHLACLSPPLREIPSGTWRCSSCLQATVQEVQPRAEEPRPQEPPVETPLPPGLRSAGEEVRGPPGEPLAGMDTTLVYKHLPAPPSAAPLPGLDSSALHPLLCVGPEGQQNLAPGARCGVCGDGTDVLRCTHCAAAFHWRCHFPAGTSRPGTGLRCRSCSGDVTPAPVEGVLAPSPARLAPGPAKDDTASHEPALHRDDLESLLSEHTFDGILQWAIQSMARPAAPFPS

Variants of: B1
testMethodNotes: AIRE transcriptional activation functional score (insulin promoter-GFP; nonsense median 0, synonymous median 1) (normalised score); higher = higher AIRE activity (more reporter activation)
setupConditions: with insulin promoter-GFP reporter in HEK293
# label = 1 (yes) if AIRE transcriptional activation functional score >= 1 else 0 (no)

Reference set (10 entries):
| variantCode | labelValue |
| --- | --- |
| R132G | 0 (no) |
| L495R | 0 (no) |
| R445N | 1 (yes) |
| K235P | 1 (yes) |
| V226R | 0 (no) |
| L488G | 1 (yes) |
| A25L | 1 (yes) |
| L13R | 1 (yes) |
| Q173E | 0 (no) |
| R149C | 0 (no) |

Is reported AIRE transcriptional activation functional score greater than or equal to 1 here: L87P
0 (no)

Is reported AIRE transcriptional activation functional score greater than or equal to 1 here: R247Y
0 (no)

Is reported AIRE transcriptional activation functional score greater than or equal to 1 here: V279T
0 (no)

Is reported AIRE transcriptional activation functional score greater than or equal to 1 here: P460V
0 (no)

Is reported AIRE transcriptional activation functional score greater than or equal to 1 here: P124L
1 (yes)

Is reported AIRE transcriptional activation functional score greater than or equal to 1 here: L283H
1 (yes)
